Value source: paper PMC11356819

biological target: mIDH1R132H (Homo sapiens, UniProt O75874, R132H); construct: purchased BPS Bioscience, San Diego, CA, USA; experiment: enzymatic inhibition assay with commercial IDH1 (R132H) kit; type: biochemical; conditions: Hill fit; parentheses = 95% CI
Sequence (O75874 whole entry R132H): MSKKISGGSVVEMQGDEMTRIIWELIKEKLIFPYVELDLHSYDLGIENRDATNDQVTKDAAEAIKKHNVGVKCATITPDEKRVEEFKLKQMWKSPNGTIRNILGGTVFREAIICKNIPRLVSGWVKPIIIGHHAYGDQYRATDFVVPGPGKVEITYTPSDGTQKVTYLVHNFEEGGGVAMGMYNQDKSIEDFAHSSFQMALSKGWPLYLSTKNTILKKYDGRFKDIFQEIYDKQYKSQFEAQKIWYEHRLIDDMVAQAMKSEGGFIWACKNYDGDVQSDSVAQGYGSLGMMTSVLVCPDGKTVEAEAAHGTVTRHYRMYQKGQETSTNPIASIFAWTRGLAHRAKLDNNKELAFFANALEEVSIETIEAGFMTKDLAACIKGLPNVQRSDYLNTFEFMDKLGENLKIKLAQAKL
value kind: Amin (fit parameter)

> print(dat)
                                   molecule        obs.value
1  C[C@@H](Nc1ccc(C#N)n(C)c1=O)c1cc2cc(F)ccc2[nH]c1=O [(R)-2]     28 (25−31) %
2  N#Cc1ccc(NCc2cc3cc(F)ccc3[nH]c2=O)cc1OCCF        3 (2−3) %
3  C[C@H](Nc1ccc(C#N)n(C)c1=O)c1cc2cc(F)ccc2[nH]c1=O [(S)-2]     33 (30−35) %
4   COc1cc(NCc2cc3cc(F)ccc3[nH]c2=O)ccc1C#N  1.8 (0.6−3.0) %

----------
target: mIDH1R132H (Homo sapiens, UniProt O75874, R132H); construct: purchased BPS Bioscience, San Diego, CA, USA; assay: enzymatic inhibition assay with commercial IDH1 (R132H) kit; assay type: biochemical; conditions: non-labeled compounds, n = 3; parentheses = 95% CI; read-out: IC50 for suppression of mIDH1R132H
value kind: IC50 (nM)

> print(dat)
                                   compound  value.kind  obs.value
1  C[C@@H](Nc1ccc(C#N)n(C)c1=O)c1cc2cc(F)ccc2[nH]c1=O [(R)-2]        IC50       1360
2  C[C@H](Nc1ccc(C#N)n(C)c1=O)c1cc2cc(F)ccc2[nH]c1=O [(S)-2]        IC50        102
3   COc1cc(NCc2cc3cc(F)ccc3[nH]c2=O)ccc1C#N        IC50        713
4  N#Cc1ccc(NCc2cc3cc(F)ccc3[nH]c2=O)cc1OCCF        IC50       8280

----------
test system: U87-mIDH cells; assay: cellular uptake in U87-mIDH cells; format: cell-based, human; conditions: U87-mIDH cells, incubation 1 h
value kind: cellular uptake (% per 100 µg protein)

> print(dat)
                                   molecule       value.kind            value.unit  obs.value
1  N#Cc1ccc(NCc2cc3cc(F)ccc3[nH]c2=O)cc1OCC[18F] [[^18F]5]  cellular uptake  % per 100 µg protein        3.2
2  COc1cc(NCc2cc3cc([18F])ccc3[nH]c2=O)ccc1C#N [[^18F]4]  cellular uptake  % per 100 µg protein        6.0
3  C[C@H](Nc1ccc(C#N)n(C)c1=O)c1cc2cc([18F])ccc2[nH]c1=O [(S)-[^18F]2]  cellular uptake  % per 100 µg protein        0.9
4  C[C@@H](Nc1ccc(C#N)n(C)c1=O)c1cc2cc([18F])ccc2[nH]c1=O [(R)-[^18F]2]  cellular uptake  % per 100 µg protein        0.5

----------
experiment: lipophilicity by shake-flask method (n-octanol/water or PBS); format: physicochemical; settings: n-octanol/PBS pH 7.4, shake-flask, triplicate; read-out: logD7.4 Exp. Determined
value kind: logD

> print(dat)
                                   molecule  obs.value
1  C[C@@H](Nc1ccc(C#N)n(C)c1=O)c1cc2cc([18F])ccc2[nH]c1=O [(R)-[^18F]2]       2.51
2  C[C@H](Nc1ccc(C#N)n(C)c1=O)c1cc2cc([18F])ccc2[nH]c1=O [(S)-[^18F]2]       2.51
3  N#Cc1ccc(NCc2cc3cc(F)ccc3[nH]c2=O)cc1OCC[18F] [[^18F]5]       2.72
4  COc1cc(NCc2cc3cc([18F])ccc3[nH]c2=O)ccc1C#N [[^18F]4]       2.67
